Data credit: patent US9137998B2

Listed below: mortality at 200 ppm values for each entry.
tested on: Sweetpotato Whitefly-Crawler (Bemisia tabaci) (WF) (BEMITA); experiment: Insecticidal test for Sweetpotato Whitefly-crawler (WF) in foliar spray assay on cotton plants; type: in vivo; conditions: Bemisia tabaci, 216 h, 200 ppm foliar spray, graded after 9 days, Abbott corrected % control, read-out: % Control (or Mortality) rating, WF

[[record]]
compound = "C#CC(C)N(C(=O)CCSCCC(F)(F)F)c1sc(-c2cccnc2)nc1C (centres unmarked)"
value = "80 to 100%"


Prompt: Identify mortality at 200 ppm associated with the compound C#CCN(C(=O)CC[S+]([O-])CCC(F)(F)F)c1sc(-c2cccnc2)nc1C (centres unmarked)
Response: 80 to 100%

Prompt: Determine from records and report mortality at 200 ppm for C#CCN(C(=O)OC(C)(C)C)c1sc(-c2cncc(F)c2)nc1Cl
Response: 80 to 100%

Prompt: Give a short answer stating reported mortality at 200 ppm for C#CCN(C(=O)CC[S+]([O-])CCC(F)(F)F)c1sc(-c2cncc(F)c2)nc1Cl (centres unmarked) .
Response: 80 to 100%

Prompt: Look up and report measured mortality at 200 ppm for this entry: CC#CCN(C(=O)OC(C)(C)C)c1sc(Br)nc1C
Response: < 0%

###

test system: Sweetpotato Whitefly-Crawler (Bemisia tabaci) (WF) (BEMITA); assay: Insecticidal test for Sweetpotato Whitefly-crawler (WF) in foliar spray assay on cotton plants; assay type: in vivo; conditions: Bemisia tabaci, 216 h, 200 ppm foliar spray, graded after 9 days, Abbott corrected % control, read-out: % Control (or Mortality) rating, WF
# mortality at 200 ppm annotations

[[record]]
molecule = "CC#CCN(C(=O)CCSCC1CC1(F)F)c1sc(-c2cccnc2)nc1C (stereo not drawn)"
assay_endpoint = "mortality at 200 ppm"
value = "80 to 100%"

[[record]]
molecule = "C#CCNc1sc(-c2cccnc2)nc1C"
assay_endpoint = "mortality at 200 ppm"
value = "0 to 80%"

[[record]]
molecule = "CC#CCN(C(=O)CCSCCC(F)(F)F)c1sc(-c2cccnc2)nc1C"
assay_endpoint = "mortality at 200 ppm"
value = "80 to 100%"

[[record]]
molecule = "C#CCN(C(=O)CCSCCC(F)(F)F)c1sc(-c2cncc(F)c2)nc1Cl"
assay_endpoint = "mortality at 200 ppm"
value = "80 to 100%"

[[record]]
molecule = "C#CCN(C(=O)CCSCCC(F)(F)F)c1sc(-c2cncnc2)nc1Cl"
assay_endpoint = "mortality at 200 ppm"
value = "80 to 100%"


Please look at the following molecule next.
Prompt: Look up mortality at 200 ppm of C#CC(C)N(C(=O)OC(C)(C)C)c1sc(Br)nc1C (stereo not drawn) and report it.
Response: 0 to 80%

###

system: Sweetpotato Whitefly-Crawler (Bemisia tabaci) (WF) (BEMITA); assay: Insecticidal test for Sweetpotato Whitefly-crawler (WF) in foliar spray assay on cotton plants; assay type: in vivo; conditions: Bemisia tabaci, 216 h, 200 ppm foliar spray, graded after 9 days, Abbott corrected % control, read-out: % Control (or Mortality) rating, WF
ASSAY ENDPOINT: mortality at 200 ppm

// known answers, use as guide
[[record]]
compound = "C#CCN(C(=O)CCS(C)(=O)=O)c1sc(-c2cccnc2)nc1C"
value = "80 to 100%"

[[record]]
compound = "C#CCN(C(=O)C(C)CSC)c1sc(-c2cccnc2)nc1Cl (stereo not shown)"
value = "80 to 100%"

[[record]]
compound = "C#CCN(C(=O)CCSCC1CC1(F)F)c1sc(-c2cncc(F)c2)nc1C (stereo not shown)"
value = "80 to 100%"

[[record]]
compound = "C#CCN(C(=O)CCS(=O)(=O)CCC(F)(F)F)c1sc(-c2cccnc2)nc1C"
value = "80 to 100%"

[[record]]
compound = "C#CCN(C(=O)CCSC)c1sc(-c2cncc(F)c2)nc1C"
value = "80 to 100%"

[[record]]
compound = "C#CCN(C(=O)CCS(=O)(=O)CCC(F)(F)F)c1sc(-c2cccnc2)nc1Cl"
value = "80 to 100%"


Prompt: Please supply the value of reported mortality at 200 ppm for the item C#CCN(C(=O)OC(C)(C)C)c1sc(-c2cccnc2)nc1Cl
Response: 80 to 100%

Prompt: Annotate the compound CC#CCN(C(=O)CCSC)c1sc(-c2cccnc2)nc1C with its measured mortality at 200 ppm.
Response: 80 to 100%

Prompt: Report mortality at 200 ppm, nothing else, for this compound: C#CCN(C(=O)CCS(=O)(=O)CCC(F)(F)F)c1sc(-c2cncnc2)nc1Cl
Response: 80 to 100%

Prompt: Specify measured mortality at 200 ppm for C#CCN(C(=O)CCSC)c1sc(-c2cccnc2)nc1C [Compound P1] .
Response: 80 to 100%

Prompt: Determine from records and report mortality at 200 ppm for C#CCN(C(=O)CCS(=O)(=O)CCC(F)(F)F)c1sc(-c2cncc(F)c2)nc1Cl
Response: 80 to 100%

Prompt: Let me know recorded mortality at 200 ppm for C#CCN(C(=O)CCSCC1CC1(F)F)c1sc(-c2cccnc2)nc1C (stereo not shown) , thanks.
Response: 80 to 100%
